target: CSF1R (Homo sapiens)
Sequence (P07333 20-972): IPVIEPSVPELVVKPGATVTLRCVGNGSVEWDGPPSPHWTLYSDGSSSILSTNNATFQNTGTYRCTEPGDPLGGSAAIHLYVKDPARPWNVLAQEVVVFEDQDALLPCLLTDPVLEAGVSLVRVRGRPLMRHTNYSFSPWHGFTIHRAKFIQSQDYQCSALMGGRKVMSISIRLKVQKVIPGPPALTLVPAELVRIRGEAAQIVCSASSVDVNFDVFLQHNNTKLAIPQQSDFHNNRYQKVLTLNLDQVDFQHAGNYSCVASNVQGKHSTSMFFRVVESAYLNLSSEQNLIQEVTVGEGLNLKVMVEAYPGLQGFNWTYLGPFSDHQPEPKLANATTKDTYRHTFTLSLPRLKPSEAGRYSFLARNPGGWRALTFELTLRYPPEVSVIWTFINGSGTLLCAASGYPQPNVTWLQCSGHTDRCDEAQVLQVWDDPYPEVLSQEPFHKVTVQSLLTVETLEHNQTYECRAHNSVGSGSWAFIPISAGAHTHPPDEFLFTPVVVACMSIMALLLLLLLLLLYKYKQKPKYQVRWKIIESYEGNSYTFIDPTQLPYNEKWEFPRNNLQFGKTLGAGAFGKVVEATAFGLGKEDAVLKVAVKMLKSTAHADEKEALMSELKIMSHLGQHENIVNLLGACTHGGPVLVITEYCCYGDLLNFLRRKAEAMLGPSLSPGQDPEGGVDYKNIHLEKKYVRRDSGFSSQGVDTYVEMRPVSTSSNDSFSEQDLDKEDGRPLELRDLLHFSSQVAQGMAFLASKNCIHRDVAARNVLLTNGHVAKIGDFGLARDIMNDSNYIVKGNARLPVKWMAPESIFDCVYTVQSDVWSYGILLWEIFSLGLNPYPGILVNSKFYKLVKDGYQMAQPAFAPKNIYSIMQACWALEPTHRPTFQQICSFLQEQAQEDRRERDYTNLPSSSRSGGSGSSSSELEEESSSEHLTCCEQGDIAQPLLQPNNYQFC
quantity-kind: Kd

compound	target-desc	Kd
COc1cc2nccc(Oc3ccc(NC(=O)c4nn(C5CC5)c(C(C)=O)c4OCC(F)(F)F)nc3)c2cc1OC	CSF1R (Homo sapiens)	100 to 500 nM
CCn1cc(OCC2CCC2)c(C(=O)Nc2ccc(Oc3ccnc4cc(OC)c(OC)cc34)cn2)n1	CSF1R (Homo sapiens)	< 100 nM

Enquiry: Short answer please: Kd, CSF1R (Homo sapiens), entry `CCn1nc(C(=O)Nc2ccc(Oc3ccnc4cc(OC)c(OC)cc34)cn2)c(OCC(F)(F)F)c1C`
Return: < 100 nM

Enquiry: Short answer please: Kd, CSF1R (Homo sapiens), entry `CCn1cc(OCC(F)(F)F)c(C(=O)Nc2ccc(Oc3ccnc4cc(OC)c(OC)cc34)cn2)n1`
Return: < 100 nM

Enquiry: Short answer please: Kd, CSF1R (Homo sapiens), entry COc1cc2nccc(Oc3ccc(NC(=O)c4nn(C5CCOC5)cc4OCC(F)(F)F)nc3)c2cc1OC (centres unmarked)
Return: < 100 nM
